Test system: MCF7 complex spheroid growth, % test/control
procedure summary: Anticancer human tumor MCF7 cell line growth inhibition [Asc]; active = viability on the fitted dose curve at most 10% of control; inactive = the rest;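 note: spheroids exposed to compounds for 7 days; 100% = DMSO vehicle control wells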
conditions used: second compound 0.0949 µM; first compound 1 µM
Labels: yes (1) (active), no (0) (inactive)

>  <compound>
C=C(F)C(=O)N1CCN(c2nc(OCC3CCCN3C)nc3c2CCN(c2cccc4cccc(Cl)c24)C3)CC1CC#N (stereo not drawn) + CCN1C(C(=O)NC23CCC(C(=O)O)(CC2)CC3)C(c2cccc(Cl)c2F)C2(C(=O)Nc3cc(Cl)ccc32)C12CCCCC2

>  <class label>
no (0)

$$$$
>  <compound>
C=CC(=O)N1CCN(c2nc(=O)n(-c3c(C)ccnc3C(C)C)c3nc(-c4c(O)cccc4F)c(F)cc23)C(C)C1 (stereo not drawn) + CCN1C(C(=O)NC23CCC(C(=O)O)(CC2)CC3)C(c2cccc(Cl)c2F)C2(C(=O)Nc3cc(Cl)ccc32)C12CCCCC2

>  <class label>
no (0)

$$$$
>  <compound>
COc1c(OCCCN2CCOCC2)ccc2c3n(c(=NC(=O)c4cnc(N)nc4)nc12)CCN3 + CCN1C(C(=O)NC23CCC(C(=O)O)(CC2)CC3)C(c2cccc(Cl)c2F)C2(C(=O)Nc3cc(Cl)ccc32)C12CCCCC2

>  <class label>
yes (1)

$$$$
>  <compound>
O=C(c1cc(Cc2n[nH]c(=O)c3ccccc23)ccc1F)N1CCN(C(=O)C2CC2)CC1 + CCN1C(C(=O)NC23CCC(C(=O)O)(CC2)CC3)C(c2cccc(Cl)c2F)C2(C(=O)Nc3cc(Cl)ccc32)C12CCCCC2

>  <class label>
no (0)

$$$$
>  <compound>
CCN1CCN(Cc2ccc(Nc3ncc(F)c(-c4cc(F)c5nc(C)n(C(C)C)c5c4)n3)nc2)CC1 + CCN1C(C(=O)NC23CCC(C(=O)O)(CC2)CC3)C(c2cccc(Cl)c2F)C2(C(=O)Nc3cc(Cl)ccc32)C12CCCCC2

>  <class label>
no (0)

$$$$
>  <compound>
C#Cc1c(F)ccc2cc(O)cc(-c3ncc4c(N5CC6CCC(C5)N6)nc(OCC56CCCN5CC(F)C6)nc4c3F)c12 (stereo not drawn) + CCN1C(C(=O)NC23CCC(C(=O)O)(CC2)CC3)C(c2cccc(Cl)c2F)C2(C(=O)Nc3cc(Cl)ccc32)C12CCCCC2

>  <class label>
no (0)

$$$$
>  <compound>
CNC(C)C(=O)NC1CN(S(=O)(=O)c2cccc(S(=O)(=O)N3CCC4CCC(C(=O)NC(c5ccccc5)c5ccccc5)N4C(=O)C(NC(=O)C(C)NC)C3)c2)CCC2CCC(C(=O)NC(c3ccccc3)c3ccccc3)N2C1=O (stereo not drawn) + CCN1C(C(=O)NC23CCC(C(=O)O)(CC2)CC3)C(c2cccc(Cl)c2F)C2(C(=O)Nc3cc(Cl)ccc32)C12CCCCC2

>  <class label>
no (0)

$$$$
>  <compound>
O=C(c1ccc(F)c(F)c1Nc1ccc(I)cc1F)N1CC(O)([C@@H]2CCCCN2)C1 + CCN1C(C(=O)NC23CCC(C(=O)O)(CC2)CC3)C(c2cccc(Cl)c2F)C2(C(=O)Nc3cc(Cl)ccc32)C12CCCCC2

>  <class label>
no (0)

$$$$
